Values compiled from ChEMBL document CHEMBL1140205.

Value type: pIC50
Scale note: pIC50 = -log10(concentration in M).

Reading of pIC50 for O=C1O/C(=C/Br)CCC1c1cccc2ccccc12 (stereo unspecified) [BROMOENOL LACTONE] with UniProt:P97612: 6.10

###

Hi there, I'd appreciate the recorded log10(Ki) for every entry that follows.
- System under test: Fatty-acid amide hydrolase 1 (Homo sapiens, UniProt O00519)
- Sequence (O00519 whole entry): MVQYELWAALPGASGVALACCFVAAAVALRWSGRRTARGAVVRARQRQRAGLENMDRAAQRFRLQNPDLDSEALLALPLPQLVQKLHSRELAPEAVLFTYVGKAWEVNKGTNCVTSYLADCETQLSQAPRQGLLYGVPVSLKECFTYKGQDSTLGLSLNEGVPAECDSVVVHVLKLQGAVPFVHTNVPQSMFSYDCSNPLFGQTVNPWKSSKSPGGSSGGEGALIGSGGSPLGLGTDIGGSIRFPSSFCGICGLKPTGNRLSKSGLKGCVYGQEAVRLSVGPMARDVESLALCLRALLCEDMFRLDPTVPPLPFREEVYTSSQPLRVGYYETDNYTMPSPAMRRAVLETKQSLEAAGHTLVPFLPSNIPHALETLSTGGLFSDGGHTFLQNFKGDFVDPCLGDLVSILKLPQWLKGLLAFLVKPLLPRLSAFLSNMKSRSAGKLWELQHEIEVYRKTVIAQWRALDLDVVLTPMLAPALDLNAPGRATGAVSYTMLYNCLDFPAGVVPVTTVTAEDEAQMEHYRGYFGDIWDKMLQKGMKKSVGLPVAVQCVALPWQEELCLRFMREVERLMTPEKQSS
The common logarithm of Ki in nM is what is listed.

Form field log10(Ki), entry CCCCCCCC/C=C\CCCCCCC(=O)c1ncc(-c2ccsc2)o1 : 4.12

Entry CCCCCCCC/C=C\CCCCCCC(=O)c1cccnn1 ; log10(Ki) = 2.11

Kindly note the recorded log10(Ki) for CCCCCCCCCC(=O)C(F)(F)F , which is 2.11

The value of log10(Ki) measured for the compound CCCCCCCC/C=C\CCCCCCC(=O)c1nc2ccccc2o1 turned out to be 2.57

Measured log10(Ki), CCCCCCCC/C=C\CCCCCCC(=O)c1nc(-c2ccccn2)co1 : 1.49

log10(Ki) for CCCCCCCC/C=C\CCCCCCC(=O)c1nc2cnccc2o1 is 0.86

Recorded log10(Ki) (compound CCCCCCCC(=O)C(F)(F)F ): 3.08

For record O=C(CCc1ccc(COc2ccccc2)cc1)c1ncc(-c2ccccn2)o1 the listed log10(Ki) is 0.00

For record O=C(CCCCCCc1ccccc1)c1nnn(-c2ccccn2)n1 the listed log10(Ki) is 0.04

Sure, the documented log10(Ki) for O=C(CCCCCCCc1ccccc1)c1nc2ncccc2o1 is -0.41

Given item CCCCCCCC/C=C\CCCCCCC(=O)c1ncc(-c2ccoc2)o1 , the value recorded as its log10(Ki) is 2.79

Quick note, log10(Ki) for N#Cc1cnc(C(=O)CCc2ccc(-c3ccccc3)cc2)o1 landed at -0.70

Just so you know, measured log10(Ki) for CCCCCCCC/C=C\CCCCCCC(=O)c1ncc(-c2ccccn2)o1 came out at 1.26

Noted for CCCCCCCC/C=C\CCCCCCC(=O)c1ncc(-c2ccco2)o1 : its log10(Ki) reads 1.73

Please fill in: log10(Ki) reported for CCCCCCCC/C=C\CCCCCCC(=O)c1nnn(C)n1 = 1.81

Sure, the documented log10(Ki) for CCCCCCCC/C=C\CCCCCCCC(=O)CCl is 2.85

Documented log10(Ki) of O=C(CCCCOCc1ccccc1)c1ncc(-c2ccccn2)o1 : 1.74

Kindly note the recorded log10(Ki) for O=C(CCCC[S+]([O-])Cc1ccccc1)c1ncc(-c2ccccn2)o1 (stereo unspecified) , which is 3.40

Measured log10(Ki), CCCCCCCCCCCCCC(=O)C(F)(F)F : 2.69

// recorded log10(Ki) for CCCCCCCC/C=C\CCCCCCC(=O)c1ncc(-c2ccccc2)o1 : 2.51

Note to self: log10(Ki) recorded for O=C(CCCCCCCCc1ccccc1)c1nc2ncccc2o1 was -0.28

Reported log10(Ki) for CCCCCCCC/C=C\CCCCCCCC(=O)C(F)(F)F was 1.08

// field: log10(Ki); key: CCCCCCCCCCCC(=O)C(F)(F)F ; value = 2.15

Form: compound = CCCCCCCC/C=C\CCCCCCC(=O)c1nc2ccncc2o1 ; log10(Ki) = 0.57

Measured log10(Ki), CCCCCCCC/C=C\CCCCCCC(=O)c1ncco1 : 1.23

Memo: CCCCCCCC/C=C\CCCCCCCC(=O)C(N)=O , reported log10(Ki): 1.23

So, CCCCCCC(=O)C(F)(F)F ? Its log10(Ki) was 4.03

# log10(Ki) (compound: CCCCCCCC/C=C\CCCCCCC(=O)c1ncc(-c2ccncc2)o1 ) is 1.75

Reported log10(Ki) of CCCCCCCC/C=C\CCCCCCCC(=O)C(=O)OCC : 0.95

Reported log10(Ki) of CCCCCCCC/C=C\CCCCCCCC(=O)O : 3.78

Query CCCCCCCC/C=C\CCCCCCCC=O yields log10(Ki) of 2.28

Lab note: measured log10(Ki) of CCCCCCCC/C=C\CCCCCCC(=O)c1nc2ncccc2o1 was 0.36

Reported log10(Ki) of CN(CCCCC(=O)c1ncc(-c2ccccn2)o1)Cc1ccccc1 : 2.30

Memo: CCCCCCCC/C=C\CCCCCCC(=O)c1ncc(-c2cccnc2)o1 , reported log10(Ki): 1.79

# log10(Ki) of CCCCCCCC/C=C\CCCCCCC(=O)c1nnc(-c2ccccn2)o1 = 3.48

So, CCCCCCCC/C=C\CCCCCCC(=O)c1nc2cccc(C)c2o1 ? Its log10(Ki) was 4.11

Record O=C(CCCc1ccccc1)c1nc2ncccc2o1 . Reported log10(Ki): 0.84

Reported log10(Ki) ( CCCCCC(=O)C(F)(F)F ) = 4.46

Recorded log10(Ki) (compound CCCCCCCC/C=C\CCCCCCC(=O)c1nc2cccnc2o1 ): 1.04

###

- System under test: Fatty-acid amide hydrolase 1 (Rattus norvegicus)
- Sequence (P97612 whole entry): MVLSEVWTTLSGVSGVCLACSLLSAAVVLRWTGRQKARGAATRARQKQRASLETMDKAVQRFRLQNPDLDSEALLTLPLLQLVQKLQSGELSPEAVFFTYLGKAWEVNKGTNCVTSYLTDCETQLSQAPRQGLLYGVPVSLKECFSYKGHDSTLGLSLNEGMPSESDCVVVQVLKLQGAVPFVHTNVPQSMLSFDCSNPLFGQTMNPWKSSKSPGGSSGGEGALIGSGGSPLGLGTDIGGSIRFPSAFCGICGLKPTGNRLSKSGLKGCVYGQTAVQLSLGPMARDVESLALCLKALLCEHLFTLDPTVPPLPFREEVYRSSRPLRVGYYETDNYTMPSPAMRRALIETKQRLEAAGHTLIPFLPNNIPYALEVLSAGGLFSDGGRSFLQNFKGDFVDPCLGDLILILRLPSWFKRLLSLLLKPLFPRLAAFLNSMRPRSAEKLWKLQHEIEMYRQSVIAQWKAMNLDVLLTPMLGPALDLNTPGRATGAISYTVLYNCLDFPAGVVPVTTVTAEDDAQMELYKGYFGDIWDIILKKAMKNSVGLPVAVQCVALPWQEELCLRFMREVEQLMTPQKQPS
- Measurement notes: Inhibition of rat FAAH
Value type: IC50 (µM)
# unit: µM | format: bare number

Item: CC(C)c1cccc(C(C)C)c1O | IC50: 14

The compound listed as CCCC(C)C1(CC)C(=O)NC(=S)NC1=O (stereo not drawn) has a reported IC50 of 2000

So for CN(C)C(=O)n1nnnc1Cc1ccc(-c2ccccc2)cc1 , the logged IC50 turned out to be 0.0124

###

- System under test: Fatty-acid amide hydrolase 1 (Homo sapiens)
- Sequence (O00519 whole entry): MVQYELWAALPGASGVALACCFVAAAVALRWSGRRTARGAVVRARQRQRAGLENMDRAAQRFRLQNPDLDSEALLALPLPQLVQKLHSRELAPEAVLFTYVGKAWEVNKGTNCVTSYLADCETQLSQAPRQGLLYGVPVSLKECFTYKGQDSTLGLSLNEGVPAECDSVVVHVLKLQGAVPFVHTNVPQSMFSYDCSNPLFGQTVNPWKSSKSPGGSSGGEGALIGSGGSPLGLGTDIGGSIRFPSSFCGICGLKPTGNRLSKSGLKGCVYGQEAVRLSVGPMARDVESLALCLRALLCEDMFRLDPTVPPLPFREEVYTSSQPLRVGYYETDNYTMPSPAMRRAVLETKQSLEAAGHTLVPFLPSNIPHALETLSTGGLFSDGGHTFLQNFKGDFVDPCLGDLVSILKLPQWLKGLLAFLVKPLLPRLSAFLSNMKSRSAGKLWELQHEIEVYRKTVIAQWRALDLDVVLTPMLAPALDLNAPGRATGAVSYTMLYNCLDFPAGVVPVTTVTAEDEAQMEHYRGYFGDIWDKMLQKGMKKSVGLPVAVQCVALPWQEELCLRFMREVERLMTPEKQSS
- Measurement notes: Inhibition of human FAAH
Value type: IC50

// recorded IC50 for CNC(=O)Oc1cccc2ccccc12 : > 30000 nM

Sure, the documented IC50 for O=C(NCC1CCCCC1)Oc1ccc(C(=O)O)cc1 is < 100 nM

So, O=C(NC1CCCCC1)Oc1ccc2ccccc2c1 ? Its IC50 was 324 nM

Value of measured IC50 for the entry O=C(NC1CCCCC1)Oc1cccc(-c2ccccc2)c1 : 63 nM

Summary for this compound, NC(=O)c1cccc(-c2cccc(OC(=O)NCCCCCCc3ccccc3)c2)c1 : IC50 is 14 nM

In plain terms, CCCCCCCC/C=C\CCCCCCCNC(=O)Oc1cccc(-c2cccc(C(N)=O)c2)c1 has a documented IC50 of 58 nM

###

- System under test: Fatty-acid amide hydrolase 1 (Homo sapiens)
- Sequence (O00519 whole entry): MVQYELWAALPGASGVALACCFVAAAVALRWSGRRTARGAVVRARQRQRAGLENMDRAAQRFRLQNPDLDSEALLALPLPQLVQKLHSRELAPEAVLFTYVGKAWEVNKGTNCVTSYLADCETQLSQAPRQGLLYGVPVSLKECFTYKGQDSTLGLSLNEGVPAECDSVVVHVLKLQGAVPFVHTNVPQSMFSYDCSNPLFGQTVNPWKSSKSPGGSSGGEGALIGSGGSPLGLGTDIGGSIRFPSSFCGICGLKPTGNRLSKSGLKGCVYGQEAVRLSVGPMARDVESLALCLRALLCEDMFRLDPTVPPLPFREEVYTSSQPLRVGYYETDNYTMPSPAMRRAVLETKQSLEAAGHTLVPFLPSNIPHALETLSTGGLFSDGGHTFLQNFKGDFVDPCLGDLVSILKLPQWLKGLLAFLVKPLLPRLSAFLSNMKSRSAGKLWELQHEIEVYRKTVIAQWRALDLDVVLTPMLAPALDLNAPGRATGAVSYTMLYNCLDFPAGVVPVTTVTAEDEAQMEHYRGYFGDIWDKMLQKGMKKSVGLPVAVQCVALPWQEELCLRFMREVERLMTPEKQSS
Quick rule for you: Ki under 0.9 nM gets YES, anything else gets NO.

Input CCCCCCCC/C=C\CCCCCCC(=O)c1nccs1 ; condition: Ki strictly below 0.9 nM. Does it hold?
NO

Lab log: compare recorded Ki with 0.9 nM; is it strictly lower for O=C(CCCCCCc1ccccc1)c1nnc[nH]1 ?
NO

Please determine if CCCCCCC(C)OC(=O)CC(=O)CBr (stereo not drawn) is below 0.9 nM in terms of Ki.
NO

In plain terms, does O=C(CCCCSCc1ccccc1)c1ncc(-c2ccccn2)o1 come in under 0.9 nM for Ki?
NO

Quick check: Ki of O=C(CCCCCc1ccccc1)c1nc2ncccc2o1 under 0.9 nM?
YES

Strictly below 0.9 nM in Ki? O=C(O)c1cccc(CCCCCCC(=O)c2ncc(-c3ccccn3)o2)c1
NO

Hello, I'm reviewing records and need to know if Ki of O=C(CCCCc1ccccc1)c1nc2ncccc2o1 is below 0.9 nM. Could you check?
YES

Here's an entry: CCCCCCCC/C=C\CCCCCCC(=O)c1ccncn1 . Is its Ki below 0.9 nM?
NO

Please state whether Ki is below 0.9 nM for CCCCCCCC/C=C\CCCCCCCC(O)C(N)=O (stereo not drawn)
NO

Criterion: Ki strictly below 0.9 nM. Is it met by CCCCCCCCCCCCCCCCCC(=O)C(F)(F)F ?
NO

is_below(Ki, 0.9 nM) for O=C(CCCCCCc1ccccc1)c1nc2ncccc2o1 ?
YES

Confirm or reject: Ki of O=C(CCCCCCc1ccccc1)C(F)(F)F lies strictly below 0.9 nM
NO
